Measured values drawn from the supplement of paper PMC6555819 for this set.

system: PXR homodimer (NR concentration 270 nM); test: PBM binding z-score (relative to random genomic background probes); higher = stronger binding; sequences stand for … in GC…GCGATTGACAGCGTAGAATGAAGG
Known PBM binding z-score of a selection of sequences
# answer = number (no unit)

Form: sequence = `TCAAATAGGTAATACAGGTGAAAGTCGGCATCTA` ; PBM binding z-score = 0.46

According to the records, this sequence `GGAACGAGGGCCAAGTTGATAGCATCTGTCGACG` displays PBM binding z-score of -0.456

For record `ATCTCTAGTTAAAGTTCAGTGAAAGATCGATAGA` the listed PBM binding z-score is 2.21

Sample `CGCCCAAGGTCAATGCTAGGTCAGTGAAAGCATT` ; PBM binding z-score observed: 1.04

Looking up `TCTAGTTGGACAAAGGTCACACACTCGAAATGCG` , I found its PBM binding z-score recorded as 1.81

PBM binding z-score reading for `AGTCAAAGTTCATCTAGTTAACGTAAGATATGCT` : 9.11

New cases:
The measured PBM binding z-score associated with `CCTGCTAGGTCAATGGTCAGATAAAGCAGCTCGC` reads -0.497

# sequence `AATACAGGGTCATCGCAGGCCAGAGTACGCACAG` ; its PBM binding z-score = 0.737

Recorded result, `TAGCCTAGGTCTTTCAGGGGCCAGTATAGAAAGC` , PBM binding z-score: -0.804

The recorded PBM binding z-score for entry `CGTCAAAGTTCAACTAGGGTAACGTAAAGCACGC` equals 6.56

GET /value?item= `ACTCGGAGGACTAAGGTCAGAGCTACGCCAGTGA` &field=PBM binding z-score returns 0.241
